Test system: B16F0 murine melanoma cell line
Experiment: cells
Assay type: cell-based
Measurement context: 10 µM, B16F0, 48 h
Measured metric: % Of melanogenesis inhibition at a specific inhibitor concentration (%)
// units = %; emit number, no label

Report % Of melanogenesis inhibition at a specific inhibitor concentration for CC(C(=O)N[C@@H](Cc1ccccc1)C(=O)N[C@@H](Cc1c[nH]c2ccccc12)C(=O)N[C@@H](Cc1ccc(O)cc1)C(=O)O)c1cccc(C(=NNC(N)=S)c2ccccc2)c1 (mixture of isomers) please.
0

Report % Of melanogenesis inhibition at a specific inhibitor concentration for `C/C(=N\NC(N)=S)c1ccc(C(=O)N[C@@H](Cc2ccccc2)C(=O)N[C@@H](Cc2ccc(O)cc2)C(=O)N[C@@H](Cc2ccc(O)cc2)C(=O)O)cc1` please.
0

Report % Of melanogenesis inhibition at a specific inhibitor concentration for CC(C(=O)N[C@@H](Cc1ccccc1)C(=O)N[C@@H](Cc1ccccc1)C(=O)N[C@@H](Cc1ccc(O)cc1)C(=O)O)c1cccc(C(=NNC(N)=S)c2ccccc2)c1 (mixture of isomers) please.
0

Report % Of melanogenesis inhibition at a specific inhibitor concentration for CC(C(=O)N[C@@H](Cc1ccccc1)C(=O)N[C@@H](Cc1ccc(O)cc1)C(=O)N[C@@H](Cc1ccc(O)cc1)C(=O)O)c1cccc(C(=NNC(N)=S)c2ccccc2)c1 (mixture of isomers) please.
0

Data origin, for the record: paper PMC10165932
